Data provenance is patent US12606520B2.

Assay Explanation: PK in mice after iv injection of liposomal NA112: plasma
Assay type: in vivo
Study Conditions: mouse, iv, 10 mg/kg, mice iv 10 mg/kg liposomes, 0.5 hr, read-out: Plasma concentration Mean
Readout Name: concentration at 0.5 hr (ng/mL)
Numeric answer only, unit ng/mL assumed.

Input line: Recorded concentration at 0.5 hr for CCC(NC(=O)[C@H](CC(C)C)NC(=O)NCc1ccccc1)C(=O)C(=O)NCc1cc(OC)cc(OC)c1 (mixture of isomers) [NA112] , please?
Output line: 3590

###

Assay Explanation: PK in mice after iv injection of liposomal NA112: plasma
Format: in vivo
Study Conditions: mouse, iv, 10 mg/kg, mice iv 10 mg/kg liposomes, 2 hr, read-out: Plasma concentration A1
Readout Name: concentration at 2 hr (ng/mL)
Numeric answer only, unit ng/mL assumed.

Input line: Recorded concentration at 2 hr for CCC(NC(=O)[C@H](CC(C)C)NC(=O)NCc1ccccc1)C(=O)C(=O)NCc1cc(OC)cc(OC)c1 (mixture of isomers) [NA112] , please?
Output line: 107

###

Assay Explanation: PK in mice after iv injection of liposomal NA112: brain
Assay type: in vivo
Study Conditions: mouse, iv, 10 mg/kg, mice iv 10 mg/kg liposomes, 0.0833 hr, read-out: Brain concentration Mean
Readout Name: concentration at 5 min (ng/mL)
Numeric answer only, unit ng/mL assumed.

Input line: Recorded concentration at 5 min for CCC(NC(=O)[C@H](CC(C)C)NC(=O)NCc1ccccc1)C(=O)C(=O)NCc1cc(OC)cc(OC)c1 (mixture of isomers) , please?
Output line: 149

###

Assay Explanation: PK in mice after iv injection of liposomal NA112: plasma
Type: in vivo
Study Conditions: mouse, 2-compartment model, mice iv 10 mg/kg in liposomes
Readout Name: half-life

Input line: Recorded half-life for CCC(NC(=O)[C@H](CC(C)C)NC(=O)NCc1ccccc1)C(=O)C(=O)NCc1cc(OC)cc(OC)c1 (mixture of isomers) , please?
Output line: 7.8 h

###

Assay Explanation: PK in mice after iv injection of liposomal NA112: brain
Type: in vivo
Study Conditions: mouse, iv, 10 mg/kg, mice iv 10 mg/kg liposomes, 0.0167 hr, read-out: Brain concentration A2
Readout Name: concentration at 1 min (ng/mL)
Numeric answer only, unit ng/mL assumed.

Input line: Recorded concentration at 1 min for CCC(NC(=O)[C@H](CC(C)C)NC(=O)NCc1ccccc1)C(=O)C(=O)NCc1cc(OC)cc(OC)c1 (mixture of isomers) , please?
Output line: 305

###

Assay Explanation: PK in mice after iv injection of liposomal NA112: brain
Type: in vivo
Study Conditions: mouse, iv, 10 mg/kg, mice iv 10 mg/kg liposomes, 1 hr, read-out: Brain concentration Mean
Readout Name: concentration at 1 hr (ng/mL)
Numeric answer only, unit ng/mL assumed.

Input line: Recorded concentration at 1 hr for CCC(NC(=O)[C@H](CC(C)C)NC(=O)NCc1ccccc1)C(=O)C(=O)NCc1cc(OC)cc(OC)c1 (mixture of isomers) , please?
Output line: 47

###

Assay Explanation: PK in mice after iv injection of liposomal NA112: plasma
Assay type: in vivo
Study Conditions: mouse, iv, 10 mg/kg, mice iv 10 mg/kg liposomes, 24 hr, read-out: Plasma concentration A1
Readout Name: concentration at 24 hr (ng/mL)
Numeric answer only, unit ng/mL assumed.

Input line: Recorded concentration at 24 hr for CCC(NC(=O)[C@H](CC(C)C)NC(=O)NCc1ccccc1)C(=O)C(=O)NCc1cc(OC)cc(OC)c1 (mixture of isomers) , please?
Output line: 5.63
